Could you please report measured pKd for the items listed next?
- tgt: T1, RADIL, Q96JH8
- T1 sequence (Q96JH8 971-1071, limits assumed, looked up): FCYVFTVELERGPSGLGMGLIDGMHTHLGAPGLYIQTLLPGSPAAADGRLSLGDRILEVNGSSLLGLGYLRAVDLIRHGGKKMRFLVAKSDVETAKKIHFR
- testDetails: holdup assay
- Set-up: key: below the threshold = too weak to quantify, mostly under pKd 3.1 to 4
- testConditions: plain residues with an end cap or a label only (N-terminal biotin on a linker: ado-ado)
Answers are plain numbers.

> print(dat)
                          binder  measurement
1    THHRKIHTRV [ZNF599, Q96NL3]         3.62
2   NISARRFTLC [FAM167B, Q9BTA0]         4.62
3  QLKSGRDSTV [TMEM178A, Q8NBL3]         3.51
4    FLVTEFNVML [DFNB31, Q9P202]         4.78
5    HLSTRQGTCV [ATRNL1, Q5VV63]         4.28

Below are 2 binders. Give each one its pKd.
1. KIEDVEITLV [FCHSD2, O94868]
2. PALKNGQYWV [CSPG4, Q6UVK1]

Response:
1: 5.03; 2: 5.17

Cited source for all entries: paper PMC9482650
